assay: Solubility Assay (HPLC); assay type: physicochemical; conditions: HEPES/NaCl buffer, aqueous with cosolvent or surfactant or cyclodextrin, kinetic from dmso stock; 20 mM HEPES, 100 mM NaCl, pH 7.5, 18-24 hours at ambient temperature; read-out: Solubility
outcomeMeasure: solubility

molecule	result
C=C(NC(=O)c1csc(N2CCC(C(=O)NC3CCOCC3)CC2)n1)C(=O)NC(=C)C(=O)OC [Compound 53]	< 100 µM
C=C(NC(=O)c1csc(-c2ccc(CNC(=O)OCCOCCNC(=O)OC(C)(C)C)cc2)n1)C(=O)NC(=C)C(=O)OC [Compound 49]	< 100 µM
C=C(NC(=O)c1csc(N2CCC(NC(=O)COCCOC)CC2)n1)C(=O)NC(=C)C(=O)OC [Compound 34]	> 1000 µM

molecule C=C(NC(=O)c1csc(-c2ccc(COC(=O)NCc3ccccc3)cc2)n1)C(=O)NC(=C)C(=O)OC [Compound 30] , solubility observed: < 100 µM
